EXPERIMENTAL TARGET: Mcl-1/Bim interaction, recombinant human Mcl-1 (171-327) (Homo sapiens, UniProt Q07820)
Construct: made in house
Sequence (Q07820 171-327): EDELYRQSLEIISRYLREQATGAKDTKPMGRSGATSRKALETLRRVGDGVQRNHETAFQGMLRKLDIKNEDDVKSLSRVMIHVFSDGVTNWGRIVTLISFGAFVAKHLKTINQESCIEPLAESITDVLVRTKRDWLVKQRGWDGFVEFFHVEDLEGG
PROTOCOL TEXT: Cell free Mcl-1: Bim Affinity Assay (Mcl-1 HTRF)
Assay type: binding
DETAILS: cell free Mcl-1:Bim TR-FRET, recombinant human Mcl-1 (171-327)

COMPOUND	EXPERIMENTAL TARGET	UNIT INFO	IC50
O=C1NS(=O)(=O)C/C=C\CCC[C@@H]2CC[C@H]2CN2C[C@@]3(CCCc4cc(Cl)ccc43)COc3ccc1cc32 (single isomer, unassigned)	Mcl-1/Bim interaction, recombinant human Mcl-1 (171-327) (Homo sapiens, UniProt Q07820)	nM	4
COCCO[C@H]1/C=C/C[C@H](C)[C@@H](CC(F)(F)F)S(=O)(=O)NC(=O)c2ccc3c(c2)N(C[C@@H]2CC[C@H]21)C[C@@]1(CCCc2cc(Cl)ccc21)CO3 (single isomer, unassigned)	Mcl-1/Bim interaction, recombinant human Mcl-1 (171-327) (Homo sapiens, UniProt Q07820)	nM	1.37
C[C@@H](O)C[C@@H]1CC/C=C/[C@H](O)[C@@H]2CC[C@H]2CN2C[C@@]3(CCCc4cc(Cl)ccc43)COc3ccc(cc32)C(=O)NS1(=O)=O (single isomer, unassigned)	Mcl-1/Bim interaction, recombinant human Mcl-1 (171-327) (Homo sapiens, UniProt Q07820)	nM	0.193
O=C1NS(=O)(=O)C(Cc2ccc(Br)cc2)CCC=CC(O)C2CCC2CN2CC3(CCCc4cc(Cl)ccc43)COc3ccc1cc32 (single isomer, unassigned)	Mcl-1/Bim interaction, recombinant human Mcl-1 (171-327) (Homo sapiens, UniProt Q07820)	nM	23.1
O=C1NS(=O)(=O)[C@H](c2ccccn2)CC/C=C/[C@H](O)[C@@H]2CC[C@H]2CN2C[C@@]3(CCCc4cc(Cl)ccc43)COc3ccc1cc32 (single isomer, unassigned) [Example 693]	Mcl-1/Bim interaction, recombinant human Mcl-1 (171-327) (Homo sapiens, UniProt Q07820)	nM	0.235
CO[C@H](C)CC1[C@@H](C)C/C=C/[C@H](O)[C@@H]2CC[C@H]2CN2C[C@@]3(CCCc4cc(Cl)ccc43)COc3ccc(cc32)C(=O)NS1(=O)=O (single isomer, unassigned)	Mcl-1/Bim interaction, recombinant human Mcl-1 (171-327) (Homo sapiens, UniProt Q07820)	nM	0.97
O=C1NS(=O)(=O)C/C=C/[C@H](O)CC[C@@H]2CC[C@H]2CN2C[C@@]3(CCCc4cc(Cl)ccc43)COc3ccc1cc32 (single isomer, unassigned)	Mcl-1/Bim interaction, recombinant human Mcl-1 (171-327) (Homo sapiens, UniProt Q07820)	nM	7.08
O=C1NS(=O)(=O)/C=C/COC[C@@H](O)[C@@H]2CC[C@H]2CN2C[C@@]3(CCCc4cc(Cl)ccc43)COc3ccc1cc32 (single isomer, unassigned)	Mcl-1/Bim interaction, recombinant human Mcl-1 (171-327) (Homo sapiens, UniProt Q07820)	nM	4.11
COCC[C@@H]1C[C@H](C)/C=C/[C@H](O)[C@@H]2CC[C@H]2CN2C[C@@]3(CCCc4cc(Cl)ccc43)COc3ccc(cc32)C(=O)NS1(=O)=O (single isomer, unassigned)	Mcl-1/Bim interaction, recombinant human Mcl-1 (171-327) (Homo sapiens, UniProt Q07820)	nM	0.197
O=C1NS(=O)(=O)CCCC2(O)CCOC(C2)C2CCC2CN2CC3(CCCc4cc(Cl)ccc43)COc3ccc1cc32 (single isomer, unassigned)	Mcl-1/Bim interaction, recombinant human Mcl-1 (171-327) (Homo sapiens, UniProt Q07820)	nM	5.8
CC[C@H]1C/C=C/[C@H](O)[C@@H]2CC[C@H]2CN2C[C@@]3(CCCc4cc(Cl)ccc43)COc3ccc(cc32)C(=O)NS(=O)(=O)N1 (single isomer, unassigned) [Example 686]	Mcl-1/Bim interaction, recombinant human Mcl-1 (171-327) (Homo sapiens, UniProt Q07820)	nM	0.597
COCCO[C@H]1/C=C/C[C@H](C)[C@H](c2ccccc2)S(=O)(=O)NC(=O)c2ccc3c(c2)N(C[C@@H]2CC[C@H]21)C[C@@]1(CCCc2cc(Cl)ccc21)CO3 (single isomer, unassigned) [Example 670]	Mcl-1/Bim interaction, recombinant human Mcl-1 (171-327) (Homo sapiens, UniProt Q07820)	nM	2.48
O=C1NS(=O)(=O)CCOC[C@@H](O)C[C@H]2CC[C@H]2CN2C[C@@]3(CCCc4cc(Cl)ccc43)COc3ccc1cc32 (single isomer, unassigned)	Mcl-1/Bim interaction, recombinant human Mcl-1 (171-327) (Homo sapiens, UniProt Q07820)	nM	4.84
CS(=O)(=O)N[C@@H]1CCCCCS(=O)(=O)NC(=O)c2ccc3c(c2)N(C[C@@H]2CC[C@H]21)C[C@@]1(CCCc2cc(Cl)ccc21)CO3 (single isomer, unassigned)	Mcl-1/Bim interaction, recombinant human Mcl-1 (171-327) (Homo sapiens, UniProt Q07820)	nM	5.94
COc1ccc(C)c(NC(=O)C[C@@H]2CC/C=C/[C@H](O)[C@@H]3CC[C@H]3CN3C[C@@]4(CCCc5cc(Cl)ccc54)COc4ccc(cc43)C(=O)NS2(=O)=O)c1 (single isomer, unassigned)	Mcl-1/Bim interaction, recombinant human Mcl-1 (171-327) (Homo sapiens, UniProt Q07820)	nM	2.3
O=C1NS(=O)(=O)C/C=C/C[C@H](O)[C@@H]2CC[C@H]2CN2C[C@@]3(CCCc4cc(Cl)ccc43)COc3ccc1cc32	Mcl-1/Bim interaction, recombinant human Mcl-1 (171-327) (Homo sapiens, UniProt Q07820)	nM	4.09
CC1COCCC(O)C2CCC2CN2CC3(CCCc4cc(Cl)ccc43)COc3ccc(cc32)C(=O)NS1(=O)=O (single isomer, unassigned)	Mcl-1/Bim interaction, recombinant human Mcl-1 (171-327) (Homo sapiens, UniProt Q07820)	nM	1.59
O=C1NS(=O)(=O)CCCOC[C@H](O)[C@@H]2CC[C@H]2CN2C[C@@]3(CCCc4cc(Cl)ccc43)COc3ccc1cc32 (single isomer, unassigned)	Mcl-1/Bim interaction, recombinant human Mcl-1 (171-327) (Homo sapiens, UniProt Q07820)	nM	8.26
CO[C@@H]1/C=C/[C@H](O)[C@@H]2CC[C@H]2CN2C[C@@]3(CCCc4cc(Cl)ccc43)COc3ccc(cc32)C(=O)NS(=O)(=O)[C@@H](C)C1 (single isomer, unassigned)	Mcl-1/Bim interaction, recombinant human Mcl-1 (171-327) (Homo sapiens, UniProt Q07820)	nM	2.09
